Attribution: the supplement of paper PMC10681739

Biological target: ETS1 (UniProt P14921)
Sequence: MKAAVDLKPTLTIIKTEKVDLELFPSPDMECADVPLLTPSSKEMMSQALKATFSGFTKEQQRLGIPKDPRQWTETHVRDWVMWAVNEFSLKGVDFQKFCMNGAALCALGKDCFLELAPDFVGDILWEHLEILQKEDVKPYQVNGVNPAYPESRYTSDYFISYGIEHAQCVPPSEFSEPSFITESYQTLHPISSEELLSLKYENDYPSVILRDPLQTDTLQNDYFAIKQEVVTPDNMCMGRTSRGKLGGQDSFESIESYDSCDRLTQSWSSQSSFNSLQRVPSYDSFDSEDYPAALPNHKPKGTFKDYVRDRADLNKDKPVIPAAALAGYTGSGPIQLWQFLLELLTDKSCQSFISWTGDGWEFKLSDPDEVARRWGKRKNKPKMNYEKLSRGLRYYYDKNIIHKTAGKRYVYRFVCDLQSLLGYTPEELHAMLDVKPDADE
Test: ETS1 binding intensity (PBM fluorescence) in presence of RUNX1, normalised to ETS1-only experiment (arbitrary fluorescence units); higher = stronger binding
Conditions: ETS1 concentration 1 nM; RUNX1 concentration 25 nM
Quick rule for you: ETS1 binding intensity at 600 or higher means rule met, lower means rule not met.

Sequence content	Label
GCCTCCTCAGGAAATTGCCCAAAATAGCCACATGTC	rule met
ACACTGAGCTGAACGGAAATGTGGTTCTCACCTCAT	rule met
CCTCACCCAGGAAGTGGCTGCGGCTGTCTCAGGGTT	rule met
CTGGAGAGGATGTGGCCCCAGTGTGGTTCTGTAACT	rule met
AGGAGTGACGAGGCGGACGTGCGGGGGCGGGGGTGT	rule not met
AAAAAGCCGGATGTGAAGGCTGTGGTTCTCAACCCG	rule met
GTGGCTATGGGAAGTGGGGTGCGGTTTCTGCCGGGG	rule met
TCAGTGCACTCGGATGTTGGCCGCAGTTGGGGTTAT	rule not met
AGCGGCTCCTTCCGGCGGCGCGGGTTCCCTTCCCTC	rule not met
ACAGATAGTGATATCCTGTGGTCAATTCCCTCCCCT	rule met
GAGGGGTGGGGGAGGAAGGCTGCGGTTTCTGCTGGG	rule met
CTTCAGGGGTGGGGCTTCCTGCCGCAGAGCCGCCTT	rule not met
TGCAGTCGTGAAAAAGGAAGTGGTTAAAGTGGATAC	rule met
CGAACGCCGGACGTTCTGGGCACGTGACCGCCACCC	rule met
TGCTTCCGGCGGGCGCTTGCTCCCCGCGGTCCGCAC	rule met
CAGTCAGACGGAAGCCCGGCTTCTGTGGTGCCTGCC	rule not met
AAAGGGCAGACTTCCCTGCCCACATCTCTGCTCCTG	rule not met
TTTACTGAGAGGAAGTGGTTCTTGTGGGTGAAGGTC	rule met
ACAGCGCCTCTTCCTGCTCTACCACATCTGATGTCC	rule not met
CACTTCCTCTGTGACTGCAGGTTTCCAACCACAAGC	rule met
CTCACTTCCCCGGCAGCTCCCTCGCCCCGACCGCAG	rule not met
AAATCACATACCCGGAAACCACATGCACAGAAGTGG	rule met
ATGACTTAGCAACATCCTGACAACCACTACATTGTC	rule not met
ATTGTAAATTTCCTTTAAACGTCCCCACCGCGCTCC	rule not met
